// data source = the RNAGym collection of RNA variant scans (doi:10.7554/elife.90254)

B1: LINE1-full (parent)
chain: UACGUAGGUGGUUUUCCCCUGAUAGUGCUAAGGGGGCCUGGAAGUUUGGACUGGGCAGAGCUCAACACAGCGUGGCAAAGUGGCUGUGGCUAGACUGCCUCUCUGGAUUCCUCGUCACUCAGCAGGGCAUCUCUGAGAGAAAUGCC

variants of: B1; assay: self-cleavage, relative activity (ratio to wild type); higher = more cleavage; in vitro, sequencing; the parent is a self-cleaving ribozyme
self-cleavage of 1 or higher: yes (1). Under 1: no (0).

Q. Check if self-cleavage >= 1 (inclusive). Item: C38A G97A
A. no (0)

Q. Check if self-cleavage >= 1 (inclusive). Item: A43U A138U
A. yes (1)

Q. Check if self-cleavage >= 1 (inclusive). Item: U47A U87C
A. no (0)

Q. Check if self-cleavage >= 1 (inclusive). Item: U62A U109C
A. no (0)

Q. Check if self-cleavage >= 1 (inclusive). Item: G11A U29A
A. yes (1)

Q. Check if self-cleavage >= 1 (inclusive). Item: U115C C146A
A. yes (1)

Q. Check if self-cleavage >= 1 (inclusive). Item: A65U U100C
A. no (0)

Q. Check if self-cleavage >= 1 (inclusive). Item: A57G U85C
A. no (0)

Q. Check if self-cleavage >= 1 (inclusive). Item: A57U A64C
A. no (0)

Q. Check if self-cleavage >= 1 (inclusive). Item: A2G G105U
A. yes (1)

Q. Check if self-cleavage >= 1 (inclusive). Item: A42G C103A
A. yes (1)

Q. Check if self-cleavage >= 1 (inclusive). Item: U62A A64C
A. no (0)

Q. Check if self-cleavage >= 1 (inclusive). Item: U1A G54A
A. yes (1)

Q. Check if self-cleavage >= 1 (inclusive). Item: U23C U115A
A. yes (1)

Q. Check if self-cleavage >= 1 (inclusive). Item: A43G C146U
A. yes (1)

Q. Check if self-cleavage >= 1 (inclusive). Item: U9A G80A
A. yes (1)

Q. Check if self-cleavage >= 1 (inclusive). Item: A57G U81A
A. yes (1)

Q. Check if self-cleavage >= 1 (inclusive). Item: G32A U96A
A. no (0)

Q. Check if self-cleavage >= 1 (inclusive). Item: U20C A24U
A. yes (1)

Q. Check if self-cleavage >= 1 (inclusive). Item: C95U A107G
A. no (0)

Q. Check if self-cleavage >= 1 (inclusive). Item: U52A U100C
A. yes (1)

Q. Check if self-cleavage >= 1 (inclusive). Item: `G21U`
A. yes (1)

Q. Check if self-cleavage >= 1 (inclusive). Item: A65G C111U
A. no (0)

Q. Check if self-cleavage >= 1 (inclusive). Item: G58U U100G
A. no (0)

Q. Check if self-cleavage >= 1 (inclusive). Item: A24G C120U
A. yes (1)

Q. Check if self-cleavage >= 1 (inclusive). Item: A42C A142G
A. yes (1)

Q. Check if self-cleavage >= 1 (inclusive). Item: U14C A121C
A. yes (1)

Q. Check if self-cleavage >= 1 (inclusive). Item: A92G C120U
A. no (0)

Q. Check if self-cleavage >= 1 (inclusive). Item: U29C A138G
A. yes (1)

Q. Check if self-cleavage >= 1 (inclusive). Item: G11U A124U
A. yes (1)

Q. Check if self-cleavage >= 1 (inclusive). Item: C37G A57G
A. no (0)

Q. Check if self-cleavage >= 1 (inclusive). Item: G34A G82U
A. yes (1)

Q. Check if self-cleavage >= 1 (inclusive). Item: U96A C110U
A. no (0)

Q. Check if self-cleavage >= 1 (inclusive). Item: A42U U109A
A. yes (1)

Q. Check if self-cleavage >= 1 (inclusive). Item: U14C C145U
A. yes (1)

Q. Check if self-cleavage >= 1 (inclusive). Item: U29C U130G
A. yes (1)

Q. Check if self-cleavage >= 1 (inclusive). Item: A65U C146U
A. no (0)

Q. Check if self-cleavage >= 1 (inclusive). Item: A42G A138U
A. yes (1)

Q. Check if self-cleavage >= 1 (inclusive). Item: `U81A`
A. yes (1)

Q. Check if self-cleavage >= 1 (inclusive). Item: U62A U132C
A. no (0)

Q. Check if self-cleavage >= 1 (inclusive). Item: U13A C128U
A. yes (1)

Q. Check if self-cleavage >= 1 (inclusive). Item: U26C A77U
A. yes (1)

Q. Check if self-cleavage >= 1 (inclusive). Item: G21A U73C
A. yes (1)

Q. Check if self-cleavage >= 1 (inclusive). Item: U26A C76A
A. yes (1)

Q. Check if self-cleavage >= 1 (inclusive). Item: U45A A138U
A. yes (1)

Q. Check if self-cleavage >= 1 (inclusive). Item: U12G G80A
A. yes (1)
